Origin of the recorded values: the RNAGym collection of RNA variant scans (doi:10.1073/pnas.2313332121)

B1: TPR 5TU (parent)
chain: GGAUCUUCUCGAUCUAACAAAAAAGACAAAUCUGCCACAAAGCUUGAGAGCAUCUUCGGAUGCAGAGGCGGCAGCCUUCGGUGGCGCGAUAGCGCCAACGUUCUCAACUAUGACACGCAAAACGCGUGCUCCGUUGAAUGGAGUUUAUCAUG

Variants of: B1
Assay: polymerase ribozyme fitness, log enrichment relative to wild type (log ratio); higher = more active; in vitro selection for triplet polymerase activity
Fewer inactive variants are shown than the library holds.
assay_readout: polymerase ribozyme fitness (log ratio)

mutant	assay_readout	censoring_operator	test_value
A60C U101G	polymerase ribozyme fitness (log ratio)	=	-1.58
A21G C85A	polymerase ribozyme fitness (log ratio)	=	-1.12
G50C C87U A113C C116A G143U U145C	polymerase ribozyme fitness (log ratio)	≤	-4.2
C35U U135A	polymerase ribozyme fitness (log ratio)	=	-0.972
U33G G124A U134G	polymerase ribozyme fitness (log ratio)	≤	-4.2
A20C A97G	polymerase ribozyme fitness (log ratio)	=	-0.83
A21C A23G C85G G141C	polymerase ribozyme fitness (log ratio)	=	-3.89
C108A A121U	polymerase ribozyme fitness (log ratio)	≤	-4.2
G88C	polymerase ribozyme fitness (log ratio)	=	-4.19
C10G C32A G58U G59U U130C	polymerase ribozyme fitness (log ratio)	≤	-4.2
A24U G88C C95G C123G	polymerase ribozyme fitness (log ratio)	≤	-4.2
C57G G83A G124U G141A	polymerase ribozyme fitness (log ratio)	=	-1.22
U56C G133U	polymerase ribozyme fitness (log ratio)	=	-4.01
A3G C8G A22U A26G G46C C96U	polymerase ribozyme fitness (log ratio)	≤	-4.2
A60G U61G C76A G124C C125G	polymerase ribozyme fitness (log ratio)	≤	-4.2
C38U A49C A66G A138U U144C	polymerase ribozyme fitness (log ratio)	≤	-4.2
A41G U104G C105U A122C	polymerase ribozyme fitness (log ratio)	=	-1.26
U33A A49C G50C C76A C85G A138U U151C	polymerase ribozyme fitness (log ratio)	≤	-4.2
A21U C85U	polymerase ribozyme fitness (log ratio)	=	-0.171
G83A U151G	polymerase ribozyme fitness (log ratio)	=	-3.97
A3C C5U G62C	polymerase ribozyme fitness (log ratio)	=	-1.89
G50A C75U C96A A97U	polymerase ribozyme fitness (log ratio)	≤	-4.2
